Values from ChEMBL document CHEMBL3585259

# assay explanation: Drug uptake in Sprague-Dawley rat brain at 100 mg/kg, po measured at 3 hrs
# Type: ADME, organism-based
# test parameters: read-out: Drug uptake
endpoint: concentration at 3 h (ng/mL)
Give bare numbers, in ng/mL.

Entry under test: O=c1cc(CN2CCOc3c(Cl)cc(-n4ccc5cc(F)ccc54)cc3C2)cc[nH]1 . Its concentration at 3 h was 3440

* * *

# tgt: CYP3A4 (Homo sapiens, UniProt P08684)
# Sequence (P08684 whole entry): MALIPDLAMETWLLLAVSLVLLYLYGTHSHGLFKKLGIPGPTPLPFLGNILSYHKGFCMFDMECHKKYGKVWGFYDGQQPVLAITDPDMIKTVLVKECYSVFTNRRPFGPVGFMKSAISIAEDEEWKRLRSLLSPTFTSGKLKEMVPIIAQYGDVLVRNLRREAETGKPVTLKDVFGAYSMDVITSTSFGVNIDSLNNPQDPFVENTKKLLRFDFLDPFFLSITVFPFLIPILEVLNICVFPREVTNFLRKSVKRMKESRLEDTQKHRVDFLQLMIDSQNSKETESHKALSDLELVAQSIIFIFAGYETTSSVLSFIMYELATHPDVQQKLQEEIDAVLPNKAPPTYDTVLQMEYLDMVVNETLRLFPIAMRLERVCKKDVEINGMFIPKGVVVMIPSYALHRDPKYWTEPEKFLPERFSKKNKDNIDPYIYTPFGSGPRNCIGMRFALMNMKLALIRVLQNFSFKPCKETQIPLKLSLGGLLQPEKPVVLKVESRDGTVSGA
# assay explanation: Inhibition of CYP3A4 (unknown origin) at 3 uM relative to control
# Assay type: ADME
endpoint: inhibition at 3 µM

Below, each entry is followed by its recorded inhibition at 3 µM result.
- COc1cc(-c2csc3ccccc23)cc2c1OCCN(Cc1ccc(S(C)(=O)=O)cc1)C2: < 10%
- COC(=O)c1ccc(CN2CCOc3c(cc(-c4csc5ccccc45)cc3OC)C2)cc1: < 10%

Measured inhibition at 3 µM for this entry O=c1cc(CN2CCOc3c(Cl)cc(-n4ccc5cc(F)ccc54)cc3C2)cc[nH]1 on CYP3A4 (Homo sapiens, UniProt P08684): < 10%
